From: patent US20080004253A1

target: rat TRPV1 (Rattus norvegicus); assay: Functional assay: block of capsaicin-induced Ca2+ influx, rat assay (rTRPV1/HEK293, FLIPR); conditions: rTRPV1/HEK293 cells, capsaicin challenge, Fluo-3 fluorescence; mean; > value = solubility limit in assay medium
Sequence (O35433 whole entry): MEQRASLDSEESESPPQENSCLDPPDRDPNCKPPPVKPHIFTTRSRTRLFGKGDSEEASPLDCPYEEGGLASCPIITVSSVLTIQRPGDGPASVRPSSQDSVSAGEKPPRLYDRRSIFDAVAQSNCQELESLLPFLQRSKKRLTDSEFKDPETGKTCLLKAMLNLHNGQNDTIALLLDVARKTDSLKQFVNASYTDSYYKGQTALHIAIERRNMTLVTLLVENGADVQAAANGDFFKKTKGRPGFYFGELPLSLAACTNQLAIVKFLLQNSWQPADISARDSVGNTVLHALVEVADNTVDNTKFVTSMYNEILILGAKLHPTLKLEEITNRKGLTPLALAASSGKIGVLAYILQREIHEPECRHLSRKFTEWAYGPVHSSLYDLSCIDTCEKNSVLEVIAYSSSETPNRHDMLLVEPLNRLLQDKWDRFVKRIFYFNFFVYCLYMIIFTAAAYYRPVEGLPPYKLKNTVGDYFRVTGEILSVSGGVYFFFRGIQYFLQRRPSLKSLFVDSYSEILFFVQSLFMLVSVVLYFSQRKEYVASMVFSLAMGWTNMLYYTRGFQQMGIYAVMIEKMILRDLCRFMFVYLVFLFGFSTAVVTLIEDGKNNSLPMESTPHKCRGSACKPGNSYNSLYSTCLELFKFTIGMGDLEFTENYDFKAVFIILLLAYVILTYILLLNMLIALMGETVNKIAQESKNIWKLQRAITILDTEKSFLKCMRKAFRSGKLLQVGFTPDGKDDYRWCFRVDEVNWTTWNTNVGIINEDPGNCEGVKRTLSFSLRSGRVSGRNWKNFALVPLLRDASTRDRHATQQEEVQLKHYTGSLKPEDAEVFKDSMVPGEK
Please use criterion met for IC50 under 30 nM and criterion not met for everything else, ties included.

molecule="FC(F)(F)c1ccc(Nc2ncnc3sc(Nc4c(Cl)cccc4C(F)(F)F)nc23)cc1 [Example 18]" label="criterion met"
molecule="Cc1nc(Nc2ccc(S(=O)(=O)N(C)C)cc2)c2nc(Nc3ncccc3C)sc2n1 [Example 212]" label="criterion not met"
molecule="Cc1nc(NC2CCC(C(C)(C)C)CC2)c2nc(Nc3c(C)cccc3C)sc2n1 (mixture of isomers) [Example 249]" label="criterion not met"
molecule="Cc1cccc(C)c1Nc1nc2c(Nc3ccc(C(=O)N(C)C)cc3)ncnc2s1 [Example 145]" label="criterion not met"
molecule="Cc1cccc(C)c1Nc1nc2c(Nc3ccc(Br)cc3)ncnc2s1 [Example 123]" label="criterion not met"
molecule="Cc1cccc(C)c1Nc1nc2c(NC3Cc4ccccc4C3)ncnc2s1 [Example 41]" label="criterion not met"
molecule="FC(F)(F)c1ccc(Nc2nc3c(Nc4ccc(C(F)(F)F)cc4)ncnc3s2)cc1 [Example 22]" label="criterion not met"
molecule="Cc1nc(Nc2ccc(C(C)C)cc2)c2nc(Nc3c(C)cccc3C)sc2n1 [Example 125]" label="criterion met"
molecule="CCc1ccc(Nc2ncnc3sc(Nc4c(C)cccc4C)nc23)cc1 [Example 45]" label="criterion not met"
molecule="COC(=O)c1scc(C)c1Nc1nc2c(Nc3ccc(C(F)(F)F)nc3)ncnc2s1 [Example 49]" label="criterion not met"
molecule="O=S(=O)(c1ccc(Nc2ncnc3sc(Nc4c(Cl)cncc4Cl)nc23)cc1)N1CCCC1 [Example 214]" label="criterion not met"
molecule="Cc1cccc(C)c1Nc1nc2c(Nc3ccc(C(F)(F)F)c(F)c3)ncnc2s1 [Example 108]" label="criterion met"
molecule="FC(F)(F)c1ccc(Nc2nc(N3CCC3)nc3sc(Nc4c(Cl)cccc4Cl)nc23)cc1 [Example 59]" label="criterion met"
molecule="Cc1nc(Nc2cccnc2)c2nc(Nc3c(Cl)cccc3Cl)sc2n1 [Example 166]" label="criterion not met"
molecule="Cc1cccc(C)c1Nc1nc2c(NC3CCC(C(C)(C)C)CC3)ncnc2s1 (single isomer, unassigned) [Example 248]" label="criterion not met"
molecule="COC(=O)C(C)(C)c1ccc(Nc2ncnc3sc(Nc4c(C)noc4C)nc23)cc1 [Example 222]" label="criterion not met"
molecule="O=S(=O)(c1ccc(Nc2ncnc3sc(Nc4c(Cl)cccc4Cl)nc23)cc1)N1CCOCC1 [Example 80]" label="criterion met"
molecule="FC(F)(F)c1ccc(Nc2ncnc3sc(Nc4c(Cl)cccc4Cl)nc23)cc1 [Example 1]" label="criterion met"
molecule="Cc1ccc(Nc2ncnc3sc(Nc4c(C)cccc4C)nc23)c(O)c1 [Example 158]" label="criterion not met"
molecule="NCc1cc(Cl)c(Nc2nc3c(Nc4ccc(C(F)(F)F)cc4)ncnc3s2)c(Cl)c1 [Example 240]" label="criterion not met"
molecule="Cc1cccc(C)c1Nc1nc2c(Nc3ccc(C(N)=O)cc3)ncnc2s1 [Example 169]" label="criterion not met"
molecule="Cc1nc(Nc2ccc(SC(C)C)cc2)c2nc(Nc3c(C)cccc3C)sc2n1 [Example 106]" label="criterion met"
molecule="CSc1ccc(Nc2ncnc3sc(Nc4c(Cl)cccc4Cl)nc23)cc1Cl [Example 124]" label="criterion not met"
molecule="Cc1nc(Nc2ccc(N(C)S(C)(=O)=O)cc2)c2nc(Nc3c(Cl)cccc3Cl)sc2n1 [Example 152]" label="criterion not met"
molecule="Cc1cccc(C)c1Nc1nc2c(Nc3ccc(S(=O)(=O)C(F)(F)F)cc3)ncnc2s1 [Example 99]" label="criterion met"
molecule="CC1CCCN1c1nc(Nc2ccc(C(F)(F)F)cc2)c2nc(Nc3c(Cl)cccc3Cl)sc2n1 (racemic) [Example 105]" label="criterion met"
molecule="FC(F)(F)c1ccc(Nc2nc(N3CCNCC3)nc3sc(Nc4c(Cl)cccc4Cl)nc23)cc1Cl [Example 162]" label="criterion not met"
molecule="FC(F)(F)c1ccc(Nc2nc(-c3ccccc3)nc3sc(Nc4c(Cl)cccc4Cl)nc23)cc1 [Example 70]" label="criterion not met"
molecule="COc1ccc(Nc2ncnc3sc(Nc4c(C)cccc4C)nc23)cc1 [Example 33]" label="criterion not met"
molecule="Cc1nc(Nc2ccc(S(=O)(=O)N3CCCC3)cc2)c2nc(Nc3c(Cl)cccc3Cl)sc2n1 [Example 73]" label="criterion met"
